From: the supplement of paper PMC10126150

Field: switch fluorescence ratio. Provide a value for each of the sequences that follow.
system: ATP; assay: switch fluorescence ratio, 500 uM ATP over buffer (Cy3 cluster intensity, sum of 5 cycles each) (fold (ratio)); higher = stronger signal-on switching upon ATP binding; sequences stand for … in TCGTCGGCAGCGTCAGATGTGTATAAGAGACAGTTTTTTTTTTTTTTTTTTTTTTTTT…TC; settings: aptamer strand: ATP DNA aptamer (quencher-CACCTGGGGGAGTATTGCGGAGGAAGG + anchor), 100 nM annealed; ATP concentration: 500 uM;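 further: ATP exposure 15 min at 22 °C before imaging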
Enter the number alone.

Dear colleague, please send me the reported switch fluorescence ratio for AAGGAGAGCT when you can. 1.01

Look up switch fluorescence ratio of TGTTTCAATT and report it. 1.02

Give me measured switch fluorescence ratio, please, for this sequence: GGGGGTTTGA 1

Provide switch fluorescence ratio value for the following sequence: GTTTACATTG 0.985

Give recorded switch fluorescence ratio. TAATGTTTCG 0.978

For the sequence ACTTTTTTAG , give its measured switch fluorescence ratio value. 0.992

Output switch fluorescence ratio of AGAGACGGCA 1.01

Give me measured switch fluorescence ratio, please, for this sequence: AGATTTAAAG 0.98

Give recorded switch fluorescence ratio. AACTTGATAT 0.983

Report switch fluorescence ratio, nothing else, for this sequence: ACGGGTTTGT 0.977

Identify the reported switch fluorescence ratio for the following entry. TATCGGTTGG 1.04

Please report the measured switch fluorescence ratio for AACGAATTAC 1.79

Identify switch fluorescence ratio associated with the sequence GGATGGGTGG 0.99

Could you please provide reported switch fluorescence ratio for CTGCGTCTAA ? Thanks! 1.03

Supply switch fluorescence ratio value. Item: GGGTGGGAAT 1.01

Given the sequence TTGAATTTGT , write its reported switch fluorescence ratio. 0.975

Find the measured switch fluorescence ratio of CGGGGGTCCT and report it. 0.986

Hello, please tell me recorded switch fluorescence ratio for this one: AAATGAACCG 1.06

Note switch fluorescence ratio for the sequence shown: ATTTAGCCTA 0.976

Entry TTTTCGTCAA needs its switch fluorescence ratio filled in; supply it. 2.86
